Source: the supplement of paper PMC10567573

B1: CPXM2 (parent)
chain: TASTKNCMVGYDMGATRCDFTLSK

Variants of: B1
Assay: protein stability index of a GFP-peptide fusion (GPS, HEK-293T) (PSI 1-6); higher = more stable;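 further: lentivirally expressed fusions sorted by FACS into six bins by GFP to DsRed ratio, PSI derived from sequencing read proportions per bin multiplied by bin number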
Conditions: c terminus: a fixed tail appended
Reported Metric: protein stability index
Quick one: just the number, no unit, thanks!

## Task Give recorded protein stability index. N6R
## Result 2.04

New cases:
## Task Give recorded protein stability index. M8N
## Result 3.95

## Task Give recorded protein stability index. S3A
## Result 2.3

## Task Give recorded protein stability index. M8F
## Result 2.73

## Task Give recorded protein stability index. M8D
## Result 4.13

## Task Give recorded protein stability index. G14F
## Result 1.93

## Task Give recorded protein stability index. G14E
## Result 2.97

## Task Give recorded protein stability index. M13W
## Result 2.02

## Task Give recorded protein stability index. K24R
## Result 1.56

## Task Give recorded protein stability index. T1L
## Result 2.18

## Task Give recorded protein stability index. G14M
## Result 2.17

## Task Give recorded protein stability index. L22P
## Result 2.48

## Task Give recorded protein stability index. K24H
## Result 2.87

## Task Give recorded protein stability index. M8Y
## Result 2.22

## Task Give recorded protein stability index. D19I
## Result 1.94

## Task Give recorded protein stability index. L22K
## Result 3.36

## Task Give recorded protein stability index. S23P
## Result 2.59

## Task Give recorded protein stability index. T21R
## Result 2.89
